Assay: Drug concentration in CB17 SCID mouse tumor xenografted with human VCaP cells at 12.5 mg/kg, po measured after 24 hrs by LC-MS/MS analysis
Type: ADME, organism-based, Neoplasm
Conditions: read-out: Ct
readout name: concentration at 24 h (ng/mL)
Numbers only; they are read as ng/mL.

Lookup: Name the recorded concentration at 24 h for C[C@H]1CC2(CCN(c3ccc(C(=O)N4CCN(C5CN(c6ccc7c(c6)C(=O)N(C6CCC(=O)NC6=O)C7=O)C5)CC4)cc3)CC2)CN1c1ccc(C#N)c(Cl)c1 (stereo partly specified) .
Found: 183

###

Molecular target: Androgen receptor (Homo sapiens) (UniProt P10275)
Sequence (P10275 whole entry): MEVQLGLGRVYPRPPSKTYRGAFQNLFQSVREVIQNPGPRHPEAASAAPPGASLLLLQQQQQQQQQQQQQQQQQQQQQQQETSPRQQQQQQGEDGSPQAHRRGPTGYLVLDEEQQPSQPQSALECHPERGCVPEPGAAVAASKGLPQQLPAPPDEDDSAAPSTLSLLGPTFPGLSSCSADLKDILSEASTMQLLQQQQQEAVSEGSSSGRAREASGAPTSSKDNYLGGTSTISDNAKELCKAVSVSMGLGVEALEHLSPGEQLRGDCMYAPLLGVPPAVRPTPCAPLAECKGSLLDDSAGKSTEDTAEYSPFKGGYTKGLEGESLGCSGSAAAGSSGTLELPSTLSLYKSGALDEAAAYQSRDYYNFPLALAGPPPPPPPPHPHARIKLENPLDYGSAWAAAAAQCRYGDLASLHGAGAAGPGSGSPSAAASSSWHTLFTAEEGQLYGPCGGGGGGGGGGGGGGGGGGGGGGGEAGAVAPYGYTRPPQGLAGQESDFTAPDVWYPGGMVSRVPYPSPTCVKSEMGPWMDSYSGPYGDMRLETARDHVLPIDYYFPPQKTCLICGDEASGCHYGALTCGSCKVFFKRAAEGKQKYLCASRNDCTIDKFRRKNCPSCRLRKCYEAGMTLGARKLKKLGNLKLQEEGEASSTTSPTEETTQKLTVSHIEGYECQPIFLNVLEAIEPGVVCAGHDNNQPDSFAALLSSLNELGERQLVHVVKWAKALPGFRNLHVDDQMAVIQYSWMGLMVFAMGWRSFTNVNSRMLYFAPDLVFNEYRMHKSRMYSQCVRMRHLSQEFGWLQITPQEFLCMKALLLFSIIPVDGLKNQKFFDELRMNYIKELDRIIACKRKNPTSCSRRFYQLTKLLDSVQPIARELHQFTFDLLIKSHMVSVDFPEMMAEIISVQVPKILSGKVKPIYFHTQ
Test: Induction of androgen receptor degradation in human VCaP cells at 0.1 uM after 24 hrs by Western blotting analysis relative to control
Type: cell-based
readout name: Activity

- compound: "N#Cc1ccc(N2CCC3(CCN(c4ccc(C(=O)N5CCN(C6CN(c7ccc8c(c7)C(=O)N(C7CCC(=O)NC7=O)C8=O)C6)CC5)cc4)CC3)C2)cc1Cl (stereo not drawn)"
  target under test: "Androgen receptor (Homo sapiens) (UniProt P10275)"
  Activity: "> 95%"

Lookup: Could you share which Activity value was measured for C[C@H]1CC2(CCN(c3ccc(C(=O)N4CCC(N5CCN(c6ccc7c(c6)C(=O)N(C6CCC(=O)NC6=O)C7=O)CC5)CC4)cc3)CC2)CN1c1ccc(C#N)c(Cl)c1 (stereo partly drawn) ?
Found: > 95%

Lookup: Now consider N#Cc1ccc(N2CCC3(CCN(c4ccc(C(=O)N5CCN(CC6CN(c7ccc8c(c7)C(=O)N(C7CCC(=O)NC7=O)C8=O)C6)CC5)cc4)CC3)C2)cc1Cl (stereo not drawn) .
Found: 81%
